Catalogue of molecules with associated Ki
target: D(2) dopamine receptor (Rattus norvegicus); assay: Binding affinity for [3H]raclopride-labeled dopamine receptor D2 in rat striatum; assay type: tissue-based
Sequence (P61169 whole entry): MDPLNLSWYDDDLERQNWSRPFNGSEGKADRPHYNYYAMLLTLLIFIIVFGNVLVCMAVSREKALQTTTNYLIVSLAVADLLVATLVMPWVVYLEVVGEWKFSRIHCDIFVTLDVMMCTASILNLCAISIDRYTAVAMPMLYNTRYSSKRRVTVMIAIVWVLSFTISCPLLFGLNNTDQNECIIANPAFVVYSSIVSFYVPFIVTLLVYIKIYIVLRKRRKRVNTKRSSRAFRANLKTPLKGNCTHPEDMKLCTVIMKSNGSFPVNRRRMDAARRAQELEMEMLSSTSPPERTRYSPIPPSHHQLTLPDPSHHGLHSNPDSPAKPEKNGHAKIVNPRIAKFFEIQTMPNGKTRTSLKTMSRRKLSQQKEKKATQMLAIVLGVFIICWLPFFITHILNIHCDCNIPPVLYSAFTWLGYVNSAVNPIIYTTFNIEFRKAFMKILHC

Illustrative cases are given below, each with its answer.
> print(dat)
                               molecule  recordedmeasurement
1  C=CCN1CC[C@H]2Cc3c(cccc3OC)C[C@@H]21            > 1000 nM
2   C=CCN1CC[C@@H]2Cc3c(O)cccc3C[C@H]21                 3 nM
3   C=CCN1CC[C@H]2Cc3c(O)cccc3C[C@@H]21                47 nM

Here's the next entry for you.
So what does the record say about Ki for C=CCN1CC[C@@H]2Cc3c(O)cccc3C[C@H]21 (racemic) ? 47 nM

* * *

tested on: Mus musculus; assay: Maximum decrease in temperature when compound is administered through peroral route; assay type: functional
Please enter MET where Max temperature decrease is greater than or equal to 6, and NOT MET where it is lower.

Completed entries (count: 3):
> print(dat)
                                   molecule  answerlabel
1  COc1cccc2c1C[C@H]1CCN(CC3CC3)[C@@H]1C2 (racemic)          MET
2  C=CCN1CC[C@@H]2Cc3c(cccc3OC)C[C@H]21 (racemic)          MET
3  CCCN1CC[C@@H]2Cc3c(cccc3OC)C[C@H]21 (racemic)      NOT MET

Now consider the entry below.
hey, is Max temperature decrease for this one >= 6? "C=CCN1CC[C@@H]2Cc3c(cccc3OC)C[C@H]21" NOT MET

* * *

tested on: Mus musculus; assay: Effective dose on hypothermia in mouse when administered subcutaneously; format: functional; details: Mus musculus, sc; read-out: ED50
attributeMeasured: ED50 (µmol/kg)
Your answer should be a plain number; it is taken to be in µmol/kg.

Here's what some known entries look like.
> print(dat)
                                   molecule  recordedmeasurement
1  CCCN1CC[C@@H]2Cc3c(cccc3OC)C[C@H]21 (racemic)                  0.4
2  COc1cccc2c1C[C@H]1CCN(CC3CC3)[C@@H]1C2 (racemic)                   19
3  COc1cccc2c1C[C@H]1CCN[C@@H]1C2 (racemic)                  1.7

We now examine a further molecule.
Fill in: ED50 of "CCCN1CC[C@@H]2Cc3c(O)cccc3C[C@H]21" is ___ 0.03

* * *

test system: Mus musculus; test: Effective dose on hypothermia in mouse when administered through peroral route; format: functional; settings: Mus musculus, po; read-out: ED50
attributeMeasured: ED50

// solved cases for ED50 follow
> print(dat)
                                   compound  recordedmeasurement
1  COc1cccc2c1C[C@H]1CCN[C@@H]1C2 (racemic)        > 125 µmol/kg
2  CCCN1CC[C@@H]2Cc3c(cccc3OC)C[C@H]21 (racemic)        > 355 µmol/kg
3        CCCN1CC[C@@H]2Cc3c(O)cccc3C[C@H]21         0.04 µmol/kg

Under Mus musculus: ED50 value of COc1cccc2c1C[C@H]1CCN(CC3CC3)[C@@H]1C2 (racemic) ? 25 µmol/kg

Please provide the recorded ED50 for CCCN(CCC)C1CCc2cccc(O)c2C1 (stereo unspecified) [8-OH-DPAT] , tested on Mus musculus. 9.7 µmol/kg

Provide value of ED50 for this record tested with Mus musculus: CCCN1[C@@H](C)C[C@@H]2Cc3cccc(OC)c3C[C@@H]21 (racemic) > 101 µmol/kg
